Recorded pIC50 for the following compounds
# experimentalSystem: HCV NS5B (Hepatitis C virus genotype 1b, UniProt Q9WMX2)
# Construct: fusion protein, of which the carboxyl terminal 21 amino acids were removed to enhance its solubility; His tag (GSHHHHHH); made in house; host or cells: E. coli
# method: Inhibition of viral RNA-dependent RNA polymerase (RdRp), in vitro biochemical assay
# Set-up: species or system HCV genotype 1b virus (BB7)
# runParameters: HCV NS5B RdRp, BB7; activity class; read-out: HCV pol-BB7 IC50
pIC50: −log10 of the molar value.
quantity: pIC50

* CCc1cc2c(C(=O)NC)c(-c3ccc(F)cc3)oc2cc1C(C)=O | ≥ 6.30
* CNC(=O)c1c(-c2ccc(F)cc2)oc2cc(NS(C)(=O)=O)c(F)cc12 | 5.30 to 6.30
* CCNc1cc2oc(-c3ccc(F)cc3)c(C(=O)NC)c2c(Cl)c1OC | ≥ 6.30
